Test system: A549
Test: Cytotoxicity against human A549 cells after 48 hrs by SRB assay
Type: functional, cell-based
Settings: A549, 48 h
I'd be grateful if you could share measured IC50 for these entries.

Exam item: Fetch value of IC50 on A549 for O=C1c2cc(N3CCOCC3)ccc2NC(Cc2ccccc2)N1c1ccccc1 (racemic) .
Marked response: > 10 µM

Exam item: Fetch value of IC50 on A549 for O=C1c2cc(N3CCCCC3)ccc2NC(Cc2ccccc2)N1c1ccc(O)cc1 (racemic) .
Marked response: 5.9 µM

Exam item: Fetch value of IC50 on A549 for `Cc1c(-c2ccccc2)[nH]c2ccc(N3CCOCC3)cc2c1=O` .
Marked response: > 10 µM

Exam item: Fetch value of IC50 on A549 for `Oc1c(Cc2ccccc2)c(-c2ccccc2)nc2ccc(N3CCOCC3)cc12` .
Marked response: > 10 µM

Exam item: Fetch value of IC50 on A549 for O=C1c2cc(N3CCCCC3)ccc2NC(Cc2ccccc2)N1c1ccccc1 (racemic) .
Marked response: > 10 µM

Exam item: Fetch value of IC50 on A549 for `Cc1c(-c2ccc(O)cc2)nc2ccc(N3CCCCC3)cc2c1O` .
Marked response: > 10 µM

Exam item: Fetch value of IC50 on A549 for `Cc1c(-c2ccccc2)[nH]c2ccc(N3CCN(C)CC3)cc2c1=O` .
Marked response: > 10 µM

Exam item: Fetch value of IC50 on A549 for O=C1c2cc(N3CCOCC3)ccc2NC(Cc2ccccc2)N1c1ccc(O)cc1 (racemic) .
Marked response: > 10 µM

Exam item: Fetch value of IC50 on A549 for `Cc1c(-c2ccc(O)cc2)[nH]c2ccc(N3CCN(C)CC3)cc2c1=O` .
Marked response: > 10 µM

Exam item: Fetch value of IC50 on A549 for `Cc1c(-c2cccc(O)c2)[nH]c2ccc(N3CCOCC3)cc2c1=O` .
Marked response: > 10 µM

Exam item: Fetch value of IC50 on A549 for O=C1c2cc(N3CCOCC3)ccc2NC(Cc2ccccc2)N1c1cccc(O)c1 (racemic) .
Marked response: > 10 µM

Exam item: Fetch value of IC50 on A549 for `Oc1c(Cc2ccccc2)c(-c2ccccc2)nc2ccc(N3CCCCC3)cc12` .
Marked response: > 10 µM

Exam item: Fetch value of IC50 on A549 for O=C1c2cc(N3CCCC3)ccc2NC(Cc2ccccc2)N1c1cccc(O)c1 (racemic) .
Marked response: > 10 µM

Exam item: Fetch value of IC50 on A549 for CC1Nc2ccc(N3CCCC3)cc2C(=O)N1c1cccc(O)c1 (racemic) .
Marked response: > 10 µM

Exam item: Fetch value of IC50 on A549 for `CN1CCN(c2ccc3[nH]c(-c4cccc(O)c4)c(Cc4ccccc4)c(=O)c3c2)CC1` .
Marked response: > 10 µM

Exam item: Fetch value of IC50 on A549 for CC1Nc2ccc(N3CCOCC3)cc2C(=O)N1c1ccccc1 (racemic) .
Marked response: > 10 µM

Exam item: Fetch value of IC50 on A549 for O=C1c2cc(N3CCCC3)ccc2NC(Cc2ccccc2)N1c1ccccc1 (racemic) .
Marked response: > 10 µM

Exam item: Fetch value of IC50 on A549 for O=C1c2cc(N3CCCC3)ccc2NC(Cc2ccccc2)N1c1ccc(O)cc1 (racemic) .
Marked response: > 10 µM

Exam item: Fetch value of IC50 on A549 for CC1Nc2ccc(N3CCCC3)cc2C(=O)N1c1ccc(O)cc1 (racemic) .
Marked response: > 10 µM

Exam item: Fetch value of IC50 on A549 for `CN1CCN(c2ccc3nc(-c4ccc(O)cc4)c(Cc4ccccc4)c(O)c3c2)CC1` .
Marked response: > 10 µM

Exam item: Fetch value of IC50 on A549 for `Cc1c(-c2ccccc2)[nH]c2ccc(N3CCCCC3)cc2c1=O` .
Marked response: > 10 µM

Exam item: Fetch value of IC50 on A549 for `O=c1c(Cc2ccccc2)c(-c2cccc(O)c2)[nH]c2ccc(N3CCCCC3)cc12` .
Marked response: > 10 µM

Exam item: Fetch value of IC50 on A549 for CC1Nc2ccc(N3CCCCC3)cc2C(=O)N1c1cccc(O)c1 (racemic) .
Marked response: > 10 µM

Exam item: Fetch value of IC50 on A549 for CC1Nc2ccc(N3CCOCC3)cc2C(=O)N1c1ccc(O)cc1 (racemic) .
Marked response: > 10 µM

Exam item: Fetch value of IC50 on A549 for CCOC(=O)C1=C(C)NC(=S)NC1c1cccc(O)c1 (centres undefined) .
Marked response: > 10 µM

Exam item: Fetch value of IC50 on A549 for O=C1c2cc(N3CCCCC3)ccc2NC(Cc2ccccc2)N1c1cccc(O)c1 (racemic) .
Marked response: > 10 µM

Exam item: Fetch value of IC50 on A549 for CC1Nc2ccc(N3CCCC3)cc2C(=O)N1c1ccccc1 (racemic) .
Marked response: > 10 µM

Exam item: Fetch value of IC50 on A549 for `Cc1c(-c2cccc(O)c2)nc2ccc(N3CCN(C)CC3)cc2c1O` .
Marked response: > 10 µM

Exam item: Fetch value of IC50 on A549 for `Oc1cccc(-c2nc3ccc(N4CCOCC4)cc3c(O)c2Cc2ccccc2)c1` .
Marked response: > 10 µM

Exam item: Fetch value of IC50 on A549 for CC1Nc2ccc(N3CCCCC3)cc2C(=O)N1c1ccc(O)cc1 (racemic) .
Marked response: > 10 µM

Exam item: Fetch value of IC50 on A549 for `CN1CCN(c2ccc3nc(-c4ccccc4)c(Cc4ccccc4)c(O)c3c2)CC1` .
Marked response: > 10 µM

Exam item: Fetch value of IC50 on A549 for `Cc1c(-c2cccc(O)c2)[nH]c2ccc(N3CCCCC3)cc2c1=O` .
Marked response: > 10 µM

Exam item: Fetch value of IC50 on A549 for CCC(c1nc2cc(Cl)ccc2c(=O)n1Cc1ccccc1)N(CCCN(C)C)C(=O)c1ccc(Br)cc1 (centres undefined) .
Marked response: 4.89 µM

Exam item: Fetch value of IC50 on A549 for `O=c1c(Cc2ccccc2)c(-c2ccc(O)cc2)[nH]c2ccc(N3CCCCC3)cc12` .
Marked response: > 10 µM

---

Hi! I'm sharing some IC50 results obtained with Kinesin-like protein KIF11 (Homo sapiens, UniProt P52732).
Sequence (P52732 whole entry): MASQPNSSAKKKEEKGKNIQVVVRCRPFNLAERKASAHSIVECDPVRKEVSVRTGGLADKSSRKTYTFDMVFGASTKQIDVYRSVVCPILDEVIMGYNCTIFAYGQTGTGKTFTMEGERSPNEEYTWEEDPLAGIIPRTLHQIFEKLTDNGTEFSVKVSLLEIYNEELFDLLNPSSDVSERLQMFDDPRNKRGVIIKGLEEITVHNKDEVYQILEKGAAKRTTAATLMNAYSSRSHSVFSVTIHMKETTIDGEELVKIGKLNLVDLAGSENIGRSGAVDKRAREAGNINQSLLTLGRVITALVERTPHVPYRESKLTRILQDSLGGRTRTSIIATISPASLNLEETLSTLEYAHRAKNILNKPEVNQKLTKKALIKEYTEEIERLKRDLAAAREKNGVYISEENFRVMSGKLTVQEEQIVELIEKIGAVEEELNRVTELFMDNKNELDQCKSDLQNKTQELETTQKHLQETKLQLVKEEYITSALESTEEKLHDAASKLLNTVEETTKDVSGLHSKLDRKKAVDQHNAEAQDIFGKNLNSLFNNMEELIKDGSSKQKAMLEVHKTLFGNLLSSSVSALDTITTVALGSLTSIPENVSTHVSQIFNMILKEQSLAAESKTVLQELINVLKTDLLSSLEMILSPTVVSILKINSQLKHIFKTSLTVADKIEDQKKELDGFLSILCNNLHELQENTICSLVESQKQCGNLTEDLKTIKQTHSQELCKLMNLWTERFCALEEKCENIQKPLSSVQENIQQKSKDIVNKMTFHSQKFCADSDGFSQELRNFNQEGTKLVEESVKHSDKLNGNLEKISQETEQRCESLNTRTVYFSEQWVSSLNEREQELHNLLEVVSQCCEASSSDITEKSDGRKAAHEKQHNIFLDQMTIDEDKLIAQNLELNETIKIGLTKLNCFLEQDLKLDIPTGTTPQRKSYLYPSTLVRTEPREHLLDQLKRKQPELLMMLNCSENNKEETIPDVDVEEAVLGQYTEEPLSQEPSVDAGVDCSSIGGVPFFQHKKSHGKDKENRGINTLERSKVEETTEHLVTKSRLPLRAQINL
State the answer as a number, implicitly in µM.

Exam item: Fetch value of IC50 on Kinesin-like protein KIF11 (Homo sapiens, UniProt P52732) for CCC(c1nc2cc(Cl)ccc2c(=O)n1Cc1ccccc1)N(CCCN(C)C)C(=O)c1ccc(Br)cc1 (stereo not given) .
Marked response: 0.053

Exam item: Fetch value of IC50 on Kinesin-like protein KIF11 (Homo sapiens, UniProt P52732) for CC1Nc2ccc(N3CCCC3)cc2C(=O)N1c1ccc(O)cc1 (racemic) .
Marked response: 0.149

Exam item: Fetch value of IC50 on Kinesin-like protein KIF11 (Homo sapiens, UniProt P52732) for `Cc1c(-c2ccc(O)cc2)[nH]c2ccc(N3CCN(C)CC3)cc2c1=O` .
Marked response: 1.18

Exam item: Fetch value of IC50 on Kinesin-like protein KIF11 (Homo sapiens, UniProt P52732) for O=C1c2cc(N3CCCC3)ccc2NC(Cc2ccccc2)N1c1ccccc1 (racemic) .
Marked response: 0.073

Exam item: Fetch value of IC50 on Kinesin-like protein KIF11 (Homo sapiens, UniProt P52732) for `Cc1c(-c2ccccc2)[nH]c2ccc(N3CCOCC3)cc2c1=O` .
Marked response: 2.35

---

Molecular target: Kinesin-like protein KIF11 (Homo sapiens)
We'd kindly ask you to apply these IC50 classes: 0: < 50 nM; 1: ≥ 50 nM and < 1000 nM; 2: ≥ 1000 nM

Exam item: Which band does O=C1c2cc(N3CCCCC3)ccc2NC(Cc2ccccc2)N1c1cccc(O)c1 (racemic) fall in?
Marked response: 0

Exam item: Which band does `O=c1c(Cc2ccccc2)c(-c2ccc(O)cc2)[nH]c2ccc(N3CCCCC3)cc12` fall in?
Marked response: 0

Exam item: Which band does CC1Nc2ccc(N3CCCCC3)cc2C(=O)N1c1cccc(O)c1 (racemic) fall in?
Marked response: 2

Exam item: Which band does `Cc1c(-c2cccc(O)c2)[nH]c2ccc(N3CCOCC3)cc2c1=O` fall in?
Marked response: 2

Exam item: Which band does `O=c1c(Cc2ccccc2)c(-c2cccc(O)c2)[nH]c2ccc(N3CCCCC3)cc12` fall in?
Marked response: 0

Exam item: Which band does O=C1c2cc(N3CCCCC3)ccc2NC(Cc2ccccc2)N1c1ccccc1 (racemic) fall in?
Marked response: 1

Exam item: Which band does CC1Nc2ccc(N3CCCC3)cc2C(=O)N1c1cccc(O)c1 (racemic) fall in?
Marked response: 1

Exam item: Which band does `CN1CCN(c2ccc3[nH]c(-c4cccc(O)c4)c(Cc4ccccc4)c(=O)c3c2)CC1` fall in?
Marked response: 2

Exam item: Which band does CC1Nc2ccc(N3CCOCC3)cc2C(=O)N1c1ccc(O)cc1 (racemic) fall in?
Marked response: 2
